Below: a set of entries, each annotated with reported PBM binding z-score.
# Tested on: RARa:RXR (NR concentration 270 nM, RXRa partner concentration 90 nM)
# protocolDescription: PBM binding z-score (relative to random genomic background probes); higher = stronger binding; sequences stand for … in GC…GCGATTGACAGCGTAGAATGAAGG
Please give the numeric answer without any surrounding text.

Sample records with PBM binding z-score:
>  <seq>
TCGAGTAGGTTCGTCGGGGCATTCAGCCAACATA

>  <experimentalReadout>
PBM binding z-score

>  <measured>
0.296

$$$$
>  <seq>
CCGAGTAGGCTATGGGGCATTCAGGCAACGGTGA

>  <experimentalReadout>
PBM binding z-score

>  <measured>
-0.583

$$$$
>  <seq>
ATATGTAGGTTACATCCGGGTCATTGAGGCTATG

>  <experimentalReadout>
PBM binding z-score

>  <measured>
3.65

$$$$

Task: What PBM binding z-score value was documented for this sequence, `GGAACCAGGGCATTCGAGTTGATAGCATGGCGAT` ?
Output: 0.882

Task: Which PBM binding z-score is reported for this sequence? `ACTATTAGTTGAGACGAGGGCAACGGATAGGTTG`
Output: 1.26
